biological target: CYP2B6 (Homo sapiens, UniProt P20813); assay: CYP2B6 inhibition assay (substrate EFC); details: read-out: Expected Inhibitor IC50, value expected from assay validation (mean ± S.D., n ≧ 8 experiments)
Sequence (P20813 whole entry): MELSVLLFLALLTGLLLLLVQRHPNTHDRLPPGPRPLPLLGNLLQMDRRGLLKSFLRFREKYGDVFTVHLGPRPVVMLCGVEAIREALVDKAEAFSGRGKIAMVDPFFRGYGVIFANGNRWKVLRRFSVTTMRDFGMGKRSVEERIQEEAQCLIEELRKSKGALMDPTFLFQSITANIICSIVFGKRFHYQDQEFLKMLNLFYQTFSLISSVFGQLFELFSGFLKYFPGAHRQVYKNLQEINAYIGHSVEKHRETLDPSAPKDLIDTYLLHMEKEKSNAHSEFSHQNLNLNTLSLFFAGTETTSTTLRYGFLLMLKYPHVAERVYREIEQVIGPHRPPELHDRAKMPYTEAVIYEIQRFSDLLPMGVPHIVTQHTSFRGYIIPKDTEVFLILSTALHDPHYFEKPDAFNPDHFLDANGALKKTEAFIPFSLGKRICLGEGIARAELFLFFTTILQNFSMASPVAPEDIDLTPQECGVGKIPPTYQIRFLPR
readout-type: pIC50
One number for each entry, as −log10 of the molar value.

For the molecule N[C@@H]1C[C@H]1c1ccccc1 (racemic) , what pIC50 is on record?
5.05

###

biological target: CYP2B6 (Homo sapiens, UniProt P20813); assay: CYP2B6 inhibition assay (substrate EFC); conditions: read-out: Observed Inhibitor IC50
readout-type: pIC50
Answers are plain numbers, as −log10 of the molar value.

For the molecule N[C@@H]1C[C@H]1c1ccccc1 (racemic) , what pIC50 is on record?
5.18

###

target: CYP2E1 (Homo sapiens); construct: purchased Gentest Corp; host or cells: insect cells (baculovirus); test: CYP2E1 inhibition assay (substrate MFC); format: in vitro ADME; details: value expected from assay validation (mean ± S.D., n ≧ 8 experiments), read-out: Expected Inhibitor IC50
Sequence (P05181 whole entry): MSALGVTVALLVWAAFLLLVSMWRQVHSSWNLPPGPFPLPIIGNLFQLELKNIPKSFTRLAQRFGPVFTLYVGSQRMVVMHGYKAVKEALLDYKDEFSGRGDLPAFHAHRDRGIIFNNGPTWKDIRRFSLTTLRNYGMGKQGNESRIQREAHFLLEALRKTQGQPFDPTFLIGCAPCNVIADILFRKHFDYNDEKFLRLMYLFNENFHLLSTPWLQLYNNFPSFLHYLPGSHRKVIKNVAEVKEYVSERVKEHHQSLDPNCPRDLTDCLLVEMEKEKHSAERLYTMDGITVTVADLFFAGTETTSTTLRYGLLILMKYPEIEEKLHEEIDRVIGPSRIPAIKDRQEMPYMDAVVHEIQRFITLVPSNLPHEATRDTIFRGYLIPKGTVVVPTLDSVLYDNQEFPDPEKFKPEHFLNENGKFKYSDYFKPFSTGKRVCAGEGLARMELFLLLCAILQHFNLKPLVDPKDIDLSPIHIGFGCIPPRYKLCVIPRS
readout-type: pIC50
Numbers only, as −log10 of the molar value.

Identify the measured pIC50 of CCN(CC)C(=S)S [DDTC, Diethyldithiocarbamic acid] for CYP2E1 (Homo sapiens).
5.30

###

Biological target: CYP2A6 (Homo sapiens)
Sequence (P11509 1-494): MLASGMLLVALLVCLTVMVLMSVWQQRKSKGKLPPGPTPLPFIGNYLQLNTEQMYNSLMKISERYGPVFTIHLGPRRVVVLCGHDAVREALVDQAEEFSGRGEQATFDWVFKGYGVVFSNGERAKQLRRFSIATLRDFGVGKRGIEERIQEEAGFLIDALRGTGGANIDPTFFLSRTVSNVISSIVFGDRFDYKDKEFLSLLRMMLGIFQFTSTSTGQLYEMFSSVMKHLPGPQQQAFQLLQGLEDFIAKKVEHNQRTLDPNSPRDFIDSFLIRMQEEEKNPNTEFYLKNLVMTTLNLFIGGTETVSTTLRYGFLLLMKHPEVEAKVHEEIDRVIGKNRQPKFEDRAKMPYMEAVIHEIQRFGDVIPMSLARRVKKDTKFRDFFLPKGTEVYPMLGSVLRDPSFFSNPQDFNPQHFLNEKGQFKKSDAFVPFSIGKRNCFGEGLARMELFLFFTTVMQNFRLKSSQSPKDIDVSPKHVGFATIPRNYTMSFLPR
Assay: CYP2A6 inhibition assay (substrate coumarin)
Conditions: read-out: Expected Inhibitor IC50, value expected from assay validation (mean ± S.D., n ≧ 8 experiments)
Method: The CYP inhibition assays used microsomes (Supersomes®, Gentest Corp., Woburn, Mass.) prepared from insect cells, each expressing an individual CYP subtype (CYP1A2, CYP2A6, CYP2B6, CYP2C8, CYP2C9, CYP2C19, CYP2D6, CYP2E1 or CYP3A4) expressed from the corresponding human CYP cDNA using a baculovirus expression vector. […] The assays monitored, via fluorescence detection, the formation of a fluorescent metabolite following incubation of the microsomes with a specific CYP substrate. […]
readout-type: IC50 (nM)
Answers are plain numbers, in nM.

For the compound N[C@@H]1C[C@H]1c1ccccc1 (racemic) , what IC50 is on record?
990

###

Target: UniProt P11509
Sequence (P11509 1-494): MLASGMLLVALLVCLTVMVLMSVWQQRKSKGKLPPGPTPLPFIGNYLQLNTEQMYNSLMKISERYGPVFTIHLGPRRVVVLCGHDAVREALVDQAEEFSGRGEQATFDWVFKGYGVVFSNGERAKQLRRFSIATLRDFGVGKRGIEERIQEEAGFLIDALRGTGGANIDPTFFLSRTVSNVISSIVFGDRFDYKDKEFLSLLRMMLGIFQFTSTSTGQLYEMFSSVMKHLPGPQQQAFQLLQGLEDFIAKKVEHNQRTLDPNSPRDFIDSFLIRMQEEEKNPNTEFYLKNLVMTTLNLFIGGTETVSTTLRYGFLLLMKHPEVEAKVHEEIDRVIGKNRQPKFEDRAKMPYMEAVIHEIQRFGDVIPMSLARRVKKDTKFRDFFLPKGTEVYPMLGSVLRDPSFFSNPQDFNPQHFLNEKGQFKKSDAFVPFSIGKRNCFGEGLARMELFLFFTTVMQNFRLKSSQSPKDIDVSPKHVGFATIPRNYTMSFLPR
Experiment: CYP2A6 inhibition assay (substrate coumarin)
Settings: read-out: Observed Inhibitor IC50
readout-type: pIC50
One number for each entry, as −log10 of the molar value.

For the compound N[C@@H]1C[C@H]1c1ccccc1 (racemic) [Tranylcypromine] , what pIC50 is on record?
6.22
